Data origin, for the record: patent US20230265151A1

Molecular target: T1, human GIP receptor (human, UniProt P48546 22-466)
T1 construct: whole, on cells; also called hGIPR; human glucose-dependent insulinotropic polypeptide receptor
T1 sequence (looked up): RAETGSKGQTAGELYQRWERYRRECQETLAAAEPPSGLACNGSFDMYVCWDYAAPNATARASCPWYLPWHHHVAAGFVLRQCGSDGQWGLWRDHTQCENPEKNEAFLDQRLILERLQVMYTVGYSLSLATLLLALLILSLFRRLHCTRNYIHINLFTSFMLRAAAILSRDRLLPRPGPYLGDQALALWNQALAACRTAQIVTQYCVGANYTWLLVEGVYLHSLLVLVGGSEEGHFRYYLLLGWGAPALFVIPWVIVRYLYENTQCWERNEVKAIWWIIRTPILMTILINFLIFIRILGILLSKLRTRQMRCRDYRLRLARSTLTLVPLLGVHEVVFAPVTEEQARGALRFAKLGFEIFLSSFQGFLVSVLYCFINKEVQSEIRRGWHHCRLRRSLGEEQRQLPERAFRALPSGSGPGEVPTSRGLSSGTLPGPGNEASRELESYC
Assay: SPA competition vs [125I]-GIP, hGIPR membranes
READOUT TYPE: pKi
Quick note: pKi values are minus log10 of concentrations in mol/L.

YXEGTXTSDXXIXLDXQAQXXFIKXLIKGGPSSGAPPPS (Aib2, αMeF(2F)6, 4Pal10, Aib11, αMeL13, Orn16, Aib20, Orn21, K24(Z1), αMeY25, K28(Z1), C-term NH2; Z1=AEEA2-(γ-Glu)2-CO-(CH2)12-CO2H)
10.37

Query: Which pKi is reported for this binder? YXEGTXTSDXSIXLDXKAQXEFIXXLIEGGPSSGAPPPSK (Aib2, αMeF(2F)6, 4Pal10, αMeL13, Orn16, K17(Z1), Aib20, D-Glu24, αMeY25, K40(Z1), C-term NH2; Z1=AEEA2-(γ-Glu)-CO-(CH2)10-CH3)
Reply: 10.54

Query: Request the reported pKi associated with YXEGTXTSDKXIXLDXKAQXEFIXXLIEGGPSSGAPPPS (Aib2, αMeF(2F)6, K10(Z1), Aib11, αMeL13, Orn16, K17(Z1), Aib20, D-Glu24, αMeY25, C-term NH2; Z1=AEEA2-(γ-Glu)-CO-(CH2)10-CH3)
Reply: 10.79

Query: Using the record for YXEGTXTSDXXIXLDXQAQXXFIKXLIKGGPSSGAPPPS (Aib2, αMeF(2F)6, 4Pal10, Aib11, αMeL13, Orn16, Aib20, Orn21, K24(Z1), αMeY25, K28(Z1), C-term NH2; Z1=AEEA2-(γ-Glu)-(11-(4-carboxyphenoxy)undecanoyl)) , report its pKi.
Reply: 10.29

Query: Quick one: pKi of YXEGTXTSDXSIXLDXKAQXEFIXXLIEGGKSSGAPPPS (Aib2, αMeF(2F)6, Bip10, αMeL13, Orn16, K17(Z1), Aib20, D-Glu24, αMeY25, K31(Z1), C-term NH2; Z1=AEEA2-(γ-Glu)-CO-(CH2)12-CO2H) ?
Reply: 9.60

Query: Quick one: pKi of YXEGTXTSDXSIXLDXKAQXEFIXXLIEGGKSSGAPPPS (Aib2, αMeF(2F)6, Nle10, αMeL13, Orn16, K17(Z1), Aib20, D-Glu24, αMeY25, K31(Z1), C-term NH2; Z1=AEEA2-(γ-Glu)-CO-(CH2)12-CO2H) ?
Reply: 9.96
